subjectOfTest: Steroidogenic factor 1 (Homo sapiens)
assayNotes: SF1 (NR5A1) inverse agonists, counter-screen for LRH-1 inverse agonist project, cell-based, luminescence, high throughput (AID 651614);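 also: cells cotransfected with StAR promoter reporter and SF1 expression vector; 0% = vehicle on cells with receptor and 100% = vehicle on cells lacking receptor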
experimentalContext: cell-based SF1 luciferase reporter, at 3.6 µM, hits give high values
Use 50% as the dividing line for inhibition, with the line itself on the 1.0 side and lower values as 0.0.

These recorded examples may help you get a feel for the data.
| compound | assignedClass |
| --- | --- |
| CCCn1c(=NC(=O)CCS(=O)(=O)c2ccccc2)sc2cc(S(N)(=O)=O)ccc21 | 0.0 |
| CCOc1ccccc1C(=O)Nc1cc2c(cc1N1CCCC1)n(CC)c(=O)n2CC | 1.0 |
| CCC1CCCCN1C(=O)c1ccc([N+](=O)[O-])o1 (stereo unspecified) | 0.0 |

Hi, just wondering whether COc1ccc(NC(=O)CSc2ccc3c(c2)OCCO3)cc1 shows inhibition of 50% or higher.
1.0

Hi, just wondering whether O=C(Nc1ccccc1C(=O)NC1CC1)c1ccc([N+](=O)[O-])o1 shows inhibition of 50% or higher.
1.0
